# study target: KRAS G12V (Homo sapiens, UniProt P01116, G12V)
# Construct: expressed in transfected cells
# Sequence (P01116 1-188 isoform P01116-2 G12V): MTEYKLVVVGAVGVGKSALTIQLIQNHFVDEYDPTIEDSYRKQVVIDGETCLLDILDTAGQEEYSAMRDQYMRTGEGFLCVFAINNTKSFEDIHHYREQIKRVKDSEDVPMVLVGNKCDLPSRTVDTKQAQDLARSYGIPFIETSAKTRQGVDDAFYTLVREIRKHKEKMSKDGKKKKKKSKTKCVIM
# assay notes: Cellular KRAS:RAF Disruption Assay (NanoBRET), KRAS G12V
# Format: cell-based
# assay context: HEK293 T cells co-expressing RAF1 and KRAS G12V, 24 hours; read-out: RAS::RAF binding via NanoBRET IC50, KRAS G12V
outcome measure: IC50 (nM)
Field: numeric (nM). Do not append units.

Use the examples below as a reference point.
{"columns": ["compound", "IC50 [nM]"],
 "data": [
  ["C#Cc1c(F)ccc2cc(O)cc(-c3ncc4c(N5CC6COC(C6)C5)nc(OC[C@@]56CCCN5C[C@H](F)C6)nc4c3F)c12 (stereo partly drawn) [Example 1-90]", 197],
  ["C#Cc1c(F)ccc2cc(O)cc(-c3ccc4c(N5CCCC(C)(O)C5)nc(OC[C@]56CCC[C@H]5N(C)CCC6)nc4c3F)c12 (stereo partly drawn) [Example 2-72]", 40.5],
  ["C#Cc1c(F)ccc2cc(O)cc(-c3ncc4c(N5CCOCC(C)(O)C5)nc(OC[C@]56CCC[C@H]5N(C)CCC6)nc4c3F)c12 (stereo partly drawn) [Example 1-108]", 140],
  ["C#Cc1c(F)ccc2cc(O)cc(-c3ncc4c(N5C[C@H]6C[C@@H]5CO6)nc(OC[C@@]56CCCN5C[C@H](F)C6)nc4c3F)c12 [Example 1-37]", 54.5]
]}

Entry C#Cc1c(F)ccc2cc(O)cc(-c3ncc4c(N5CC6CCC(C5)N6C(=O)C5CC5)nc(OC[C@@]56CCCN5C[C@H](F)C6)nc4c3F)c12 [Example 6-2] ; IC50 = 405

====

# study target: KRAS G12D (Homo sapiens, UniProt P01116, G12D)
# Sequence (P01116 1-188 isoform P01116-2 G12D): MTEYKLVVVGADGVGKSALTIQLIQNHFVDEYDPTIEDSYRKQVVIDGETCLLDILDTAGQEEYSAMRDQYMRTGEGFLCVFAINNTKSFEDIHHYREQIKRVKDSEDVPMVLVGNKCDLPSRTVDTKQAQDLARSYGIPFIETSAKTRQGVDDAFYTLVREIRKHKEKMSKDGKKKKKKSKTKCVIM
# assay notes: biochemical
Listed here: items and their measured IC50.

{"columns": ["compound", "measured value"],
 "data": [
  ["C#Cc1c(F)ccc2cc(O)cc(-c3ccc4c(N5CCCC(C#N)C5)nc(OC[C@@]56CCCN5C[C@H](F)C6)nc4c3F)c12 (single isomer, unassigned) [Example 2-41]", "0.68 µM"],
  ["C#Cc1c(F)ccc2cc(O)cc(-c3ncc4c(N5C[C@@H](C)O[C@@H](C)C5)nc(OC[C@]56CCC[C@H]5N(C)CCC6)nc4c3F)c12 [Example 1-12]", "1 µM"]
]}

Moving on to another compound below.
// CN1CCC[C@@]2(COc3nc(N4CCC[C@@](C)(O)C4)c4cnc(-c5cc(O)ccc5C5CCC5)c(F)c4n3)CCC[C@@H]12 [Example 10-3] : IC50 value = 1.06 µM

====

# study target: KRAS G12D (Homo sapiens, UniProt P01116, G12D)
# assay notes: biochemical
outcome measure: IC50

{"columns": ["compound", "study target", "IC50"],
 "data": [
  ["C#Cc1c(F)ccc2cc(O)cc(-c3ncc4c(N5CCCOCC5)nc(OC[C@]56CCC[C@H]5N(C)CCC6)nc4c3F)c12 [Example 1-3]", "KRAS G12D (Homo sapiens, UniProt P01116, G12D)", "< 0.002 µM"],
  ["CN1CCC[C@@]2(COc3nc(N4CCC[C@@](C)(O)C4)c4cnc(-c5cn(C(F)F)c(=O)c6ccc(C(F)(F)F)cc56)c(F)c4n3)CCC[C@@H]12 [Example 10-8]", "KRAS G12D (Homo sapiens, UniProt P01116, G12D)", "> 100 µM"]
]}

Now look at this one.
Lab note: CN1CCC[C@@]2(COc3nc(N4CCC[C@@](C)(O)C4)c4cnc(-c5cnc(OC(F)F)c6ccccc56)c(F)c4n3)CCC[C@@H]12 [Example 10-7] gave IC50 of > 100 µM

Ref: patent US20240199584A1
